# Tested on: Plasmodium berghei
# protocol: Screen against P. berghei liver stage (PbLuc), transformed with Luciferase, at 10uM
# Type: functional, HepG2
# measurement_conditions: tested at 10 uM
Out of some 69,000 compounds screened, about 8,600 (12%) showed an effect of 50% or more. The sample as a whole holds a higher share of strong results than the screen did.
Label 1 when INHIBITION is at or above 40%; otherwise label -1.

Worked set:
[
  {
    "molecule": "CC(C)c1cc(NCC(O)CO)n2nccc2n1 (stereo not drawn)",
    "assigned_category": -1
  },
  {
    "molecule": "CCN(Cc1ccccc1)C(=O)CN1CCCCC1Cn1cncn1 (stereo not drawn)",
    "assigned_category": -1
  },
  {
    "molecule": "Cc1cc(C)n(CC2CN(Cc3nc(C)c(C)o3)CCO2)n1 (stereo not drawn)",
    "assigned_category": -1
  },
  {
    "molecule": "CC(C)(C)OC(=O)N1CCC[C@H](NCc2cc[nH]c2)C1",
    "assigned_category": 1
  }
]

# input for lookup
Is reported INHIBITION greater than or equal to 40% here: COCCn1ccc2c(C(=O)Nc3nc4c(s3)CCC4)cccc21
1

----------
# Tested on: Plasmodium berghei
# protocol: Screen against P. berghei liver stage (PbLuc), transformed with Luciferase, at 10uM
# Type: functional, HepG2
# measurement_conditions: tested at 10 uM
The whole screen tested about 69,000 compounds, of which about 8,600 (12%) showed an effect of 50% or more. This excerpt belongs to a sample that is enriched for strong results.
property_label: INHIBITION (%)
One number for each entry, in %.

See these solved cases before continuing.
[
  {
    "compound": "Cc1ccc([C@@]2(O)CC[C@@H]3CN(S(=O)(=O)C(C)C)C[C@@H]32)cc1",
    "unit_label": "%",
    "meas_value": 3.91
  },
  {
    "compound": "CCc1ccc(C(=O)NC(C)c2ccc(S(C)(=O)=O)c(F)c2)o1 (centres undefined)",
    "unit_label": "%",
    "meas_value": 6.33
  }
]

Count: 8. Required value per item: INHIBITION.
1. CCc1nc(CNCC2CCCN2c2cccnn2)cs1 (centres undefined)
2. CC(NC(=O)c1ccc(CS(C)(=O)=O)o1)c1ccc(F)c(F)c1 (centres undefined)
3. Cc1ccc(OCC2CCCN(C(=O)Cn3ccccc3=O)C2)cc1 (centres undefined)
4. Cc1cnn(CCNCc2cc(C)no2)c1
5. COc1ncccc1CNC(=O)N1CCC(CNC(C)=O)CC1
6. Cc1cnn(CCNCc2cc(-c3ccccc3)no2)c1
7. N#Cc1nccnc1N1CCC(OCCCc2ccccc2)C1 (centres undefined)
8. Cc1sc(CN)nc1-c1ccccc1

1: 5.8; 2: 12.3; 3: 18.5; 4: 38.8; 5: 0.266; 6: 20.4; 7: 72.3; 8: 6.54

----------
# Test system: Plasmodium berghei
# protocol: Screen against P. berghei liver stage (PbLuc), transformed with Luciferase, at 10uM
# Assay type: functional, HepG2
# measurement_conditions: tested at 10 uM
In all, about 69,000 compounds went through this assay and about 8,600 (12%) showed an effect of 50% or more. This is one part of a sample in which strong results are shown more often than they occur.
property_label: INHIBITION (%)
Numbers only, in %.

See these solved cases before continuing.
[
  {
    "compound": "CCN(CC)CC1CN(CCc2ccccc2)Cc2nccn2C1 (stereo not drawn)",
    "property_label": "INHIBITION",
    "meas_value": 0.139
  },
  {
    "compound": "O=S(=O)(c1ccccc1)N1CCC[C@]2(C[C@H](OCC3CC3)CO2)C1",
    "property_label": "INHIBITION",
    "meas_value": 19.4
  },
  {
    "compound": "CCS(=O)(=O)N1C[C@H]2CN(Cc3cccc(F)c3)C(=O)[C@H]2C1",
    "property_label": "INHIBITION",
    "meas_value": 3.58
  },
  {
    "compound": "O=C(NCc1ccco1)[C@H]1CC[C@@H]2[C@@H](CCN2c2ncc(F)cn2)O1",
    "property_label": "INHIBITION",
    "meas_value": 38.1
  },
  {
    "compound": "O=C(CCOc1ccccc1F)N1CCCCC1Cn1cccn1 (stereo not drawn)",
    "property_label": "INHIBITION",
    "meas_value": -21.5
  },
  {
    "compound": "CN(C)S(=O)(=O)N1CC[C@]2(C[C@H](OCc3ccccn3)CO2)C1",
    "property_label": "INHIBITION",
    "meas_value": 57.1
  }
]

Count: 8. Required value per item: INHIBITION.
1. CCO[C@H]1CO[C@@]2(CCCN(S(=O)(=O)c3ccccc3)C2)C1
2. Cc1ccc(CN2CCCC3(CCC(=O)N3)CC2)s1 (stereo not drawn)
3. CN(C)S(=O)(=O)N1CCC2(CC1)CC(OCC1CC1)CO2 (stereo not drawn)
4. CCn1cc(S(=O)(=O)Nc2nc3c(s2)CCCC3)cn1
5. CN1CCCC1CNC(=O)CCOc1ccc(Cl)cc1 (stereo not drawn)
6. CN(C)S(=O)(=O)N1CC[C@]2(C[C@@H](Oc3ncccc3F)CO2)C1
7. COCCc1noc(CN2CCCC2Cn2cccn2)n1 (stereo not drawn)
8. Cc1cc(Cl)ccc1-n1ncc(C(=O)NCC2COC(C)(C)O2)c1N (stereo not drawn)

1. 23.9
2. -19.6
3. 28.2
4. -35.4
5. -11.98
6. 10.1
7. 38.8
8. -15.2

Count: 4. Required value per item: INHIBITION.
1. CC(=O)NCC1CCC2(CCN(c3ncc(C(C)=O)c(C)n3)CC2)O1 (stereo not drawn)
2. CCC(=O)NS(=O)(=O)c1cccnc1Nc1cccc(Cl)c1Cl
3. COc1ccc(Nc2nc3c(C)nn(C)c3c(=O)n2C)c(C)c1
4. CC(C)N1CC(C(=O)NCc2ccc(S(=O)(=O)N(C)C)cc2)CC1=O (stereo not drawn)

1: 56.7; 2: 42.6; 3: 29; 4: 6

Count: 5. Required value per item: INHIBITION.
1. Cc1ccc(S(=O)(=O)N2CCN(C)c3ccncc32)cc1F
2. Cc1cccc(CO[C@@H]2CO[C@@]3(CCN(S(=O)(=O)N(C)C)C3)C2)n1
3. Cc1cnc(C(=O)N2CCCN(c3nc(C)cs3)CC2)cn1
4. COc1cc(C(=O)N2CCC(Nc3cccnc3)CC2)ccc1C
5. CC(=O)NCC1CCC2(CCN(c3ncc(C)cn3)CC2)O1 (stereo not drawn)

[41, 63.5, -5.25, -22.1, -4.21]

----------
# Test system: Plasmodium berghei
# protocol: Screen against P. berghei liver stage (PbLuc), transformed with Luciferase, at 10uM
# Type: functional, HepG2
# measurement_conditions: tested at 10 uM
About 8,600 (12%) of roughly 69,000 compounds showed an effect of 50% or more. Only a selection was taken, and strong results are over-represented in it overall.
Categorize each record by its INHIBITION using group 1 = under 20%, group 2 = from 20% up to 40%, group 3 = 40% and over

Worked set:
[
  {
    "compound": "CC(O)CN1CCN(Cc2coc(-c3ccccc3)n2)CC1 (stereo not given)",
    "target_system": "Plasmodium berghei",
    "assigned_category": "group 1"
  },
  {
    "compound": "OCCN1CCN(Cc2coc(-c3ccccc3Cl)n2)CC1",
    "target_system": "Plasmodium berghei",
    "assigned_category": "group 1"
  },
  {
    "compound": "OCCN1CCN(Cc2coc(-c3cccc(F)c3)n2)CC1",
    "target_system": "Plasmodium berghei",
    "assigned_category": "group 3"
  },
  {
    "compound": "CN1CCOC(CNCc2coc(-c3cccc(Cl)c3)n2)C1 (stereo not given)",
    "target_system": "Plasmodium berghei",
    "assigned_category": "group 2"
  },
  {
    "compound": "COCC(C)NCc1ccc2[nH]c(C)c(C)c2c1 (stereo not given)",
    "target_system": "Plasmodium berghei",
    "assigned_category": "group 1"
  },
  {
    "compound": "Cc1[nH]c2ccc(CNc3cc(C(N)=O)ccn3)cc2c1C",
    "target_system": "Plasmodium berghei",
    "assigned_category": "group 1"
  },
  {
    "compound": "CSCC(C)NCc1ccc2[nH]c(C)c(C)c2c1 (stereo not given)",
    "target_system": "Plasmodium berghei",
    "assigned_category": "group 3"
  },
  {
    "compound": "OCCN1CCN(Cc2coc(-c3ccccc3)n2)CC1",
    "target_system": "Plasmodium berghei",
    "assigned_category": "group 3"
  }
]

Please report the category associated with COC(=O)C(C)NCc1ccc2[nH]c(C)c(C)c2c1 (stereo not given) , nothing else.
group 3

Please report the category associated with CN(Cc1ccc2c(c1)OCO2)Cc1nc2c(cnn2C)c(=O)[nH]1 , nothing else.
group 1

Please report the category associated with CC(=O)N1CCN(Cc2coc(-c3cccc(F)c3)n2)CC1 , nothing else.
group 1

Please report the category associated with Cc1[nH]c2ccc(CNc3cc(C#N)ccn3)cc2c1C , nothing else.
group 1

Please report the category associated with OCCN1CCN(Cc2coc(-c3cccc(Cl)c3)n2)CC1 , nothing else.
group 2

Please report the category associated with CN(C)CC1CN(Cc2ccc(-n3cccn3)cc2)CCO1 (stereo not given) , nothing else.
group 1

Please report the category associated with CN1CCOC(CNCc2coc(-c3cccc(F)c3)n2)C1 (stereo not given) , nothing else.
group 3

Please report the category associated with COc1ccc(-c2ccnc(N)c2)c(C)c1 , nothing else.
group 2
